src = paper PMC6138665

# TARGET OF ASSAY: GABARAP protein (recombinant) (UniProt O95166 1-117)
# Sequence (O95166 whole entry): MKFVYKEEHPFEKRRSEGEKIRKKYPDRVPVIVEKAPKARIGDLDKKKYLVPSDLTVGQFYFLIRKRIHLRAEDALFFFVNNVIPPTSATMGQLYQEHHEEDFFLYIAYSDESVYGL
# EXPERIMENT NOTES: ITC
MEASUREMENT KIND: pKd
pKd is defined as minus the log10 of a concentration measured in mol/L.

Entry EALNDGVEYYWDQLNET [AMBRA1-LIR peptide, D-phosphomimicked (PM)] : reported pKd = ?
4.51
